Overview of recorded growth inhibition for various compounds
- Method notes: NCI Yeast Anticancer Drug Screen. Data for the mlh1 rad18 strain (AID 175)
- Condition label: S. cerevisiae mlh1 rad18 strain growth inhibition; at 50.0 µM; stronger effect = higher value
About 79,000 compounds went through this panel and 15% of them were active in at least one assay; those are over-represented in the sample as a whole.
Field: numeric (%). Do not append units.

// below: answered compounds
Problem: Sample CN(C)c1ccc(/C=C/c2nccc3ccccc23)cc1 — what was its growth inhibition?
Solution: 91

Problem: Entry CCOc1cc2c(cc1O)/C(=N\OC)C[C@@H]1[C@@H]2CC[C@]2(C)[C@@H](O)CC[C@@H]12 : reported growth inhibition = ?
Solution: 79.1

Problem: Which measured growth inhibition value corresponds to O=[n+]1c2ccccc2n([O-])c2cc(Cl)ccc21 ?
Solution: 99.1

Problem: Could you share which growth inhibition value was measured for CCC1C[N+]2=C(c3cc(OC)c(OC)cc3CC2)c2c1cc1n2CCc2cc(OC)c(OC)cc2-1 (centres undefined) ?
Solution: 93.6

Problem: Record request: growth inhibition value, item O=C(Cc1ccccc1)C(F)(F)F
Solution: 58.8

Next:
Problem: Look up growth inhibition: COc1cccc2c1C(=O)c1c(O)c3c(c(O)c1C2=O)C[C@@](O)(C(=O)CO)C[C@@H]3OC1CC(OC(C)=O)C(OC(C)=O)C(C)O1 (some centres undefined)
Solution: 91.6

Problem: # query: growth inhibition of entry C=C(C)C1CC2(C)C(C)CC(O)CC2C(OC(=O)C=C(C)C)C1O (centres undefined)
Solution: 69

Problem: Reported growth inhibition, compound CC(C)Nc1ccc(Nc2ccc(NC(C)C)cc2)cc1 : ____
Solution: 92.3

Problem: Query (compound): CCN(CC)CC(O)c1cc(-c2ccc(Cl)cc2)nc2cc(Cl)ccc12 (centres undefined) ; field requested: growth inhibition
Solution: 98.3

Problem: # lookup: growth inhibition of CC(C)(C)c1ccc(O)c(Br)c1
Solution: 86.8

###

- Method notes: NCI Yeast Anticancer Drug Screen. Data for the bub3 strain (AID 167)
- Condition label: S. cerevisiae bub3 mutant strain, at 50.0 µM (retest, dose inferred, filed as 5.0), stronger effect = higher value
Compounds without any hit were thinned out: in the full panel of roughly 79,000, 15% have a hit. Activity calls are given as the source filed them. Cut-off read from the data, not from the text of the source: active = growth inhibition above about 70%; inactive = the rest.
Reported endpoint: growth inhibition

Problem: May I ask what growth inhibition has been recorded for CCCCC(=O)c1ccc([N+](=O)[O-])o1 ?
Solution: 100% (active)

Problem: Item Oc1ccc(Cl)cc1Cc1cc(Cl)ccc1O has what recorded growth inhibition?
Solution: 99% (active)

Problem: Fill in: growth inhibition of O=C(/C=C/c1ccccc1)CCC1C(=O)c2ccccc2C1=O is ___
Solution: 51% (inactive)

Problem: // growth inhibition lookup, key: Cc1cccc2c(N)c3ccccc3nc12
Solution: -9% (inactive)

Problem: Requested read-out: growth inhibition. Entry: COc1cc(/C=C/c2ccnc3ccccc23)cc(OC)c1OC
Solution: 92% (active)

Moving on to another compound below.
Problem: Endpoint output: growth inhibition of N#C/C(=N\O)C(N)=O . Value?
Solution: 86% (active)

###

- Method notes: NCI Yeast Anticancer Drug Screen. Data for the rad50 strain (AID 155);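 also: 0% = growth of vehicle-only cultures of the same strain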
- Condition label: S. cerevisiae rad50 strain growth inhibition; at 5.0 µM (retest, dose inferred, filed as 0.5)
This is part of a sample that, as a whole, favours compounds with a hit. Of some 79,000 tested, about 15% had one in any assay. Activity calls are given as the source filed them. Cut-off read from the data, not from the text of the source: active = growth inhibition above about 70%; inactive = the rest.
I would appreciate it if you answered using one of these outcomes: yes (1) = active, no (0) = inactive

Take a look at these entries with their results.
Problem: Please let me know the test result on file for COC(=O)c1cc([N+](=O)[O-])cc([N+](=O)[O-])c1Cl .
Solution: yes (1)

Problem: How was C=C1C(=O)OC2CC3(C)CCCC(C)C3=CC12 (stereo unspecified) classified in this test?
Solution: no (0)

Problem: Recorded test outcome, item CC/C(=C(/CC)c1ccc(O)cc1)c1ccc(O)cc1
Solution: no (0)

Problem: Just curious, what result did CN(C)c1ccc(C(=C2C=CC(=[N+](C)C)C=C2)c2ccc(N(C)C)cc2)cc1 get here?
Solution: yes (1)

Problem: Can you look up the reported call for COC1CC(C)C(OC)c2cc(O)cc(c2O)NC(=O)/C(C)=C/C=C\C(C)C(OC(N)=O)/C(C)=C\C(C)C1OC (stereo unspecified) for me?
Solution: yes (1)

Others:
Problem: Name the outcome recorded for CC1=C(Cl)C[C@@H](/C(C)=C\Cl)O[C@@]1(O)C(Br)Br in the assay.
Solution: no (0)

Problem: What classification did CCC[CH2][Sn]1([CH2]CCC)[O]C2C(CO)OC(n3ccc(N)nc3=O)C2[O]1 (stereo unspecified) end up with in this test?
Solution: no (0)

###

- Method notes: NCI Yeast Anticancer Drug Screen. Data for the bub3 strain (AID 167)
- Condition label: S. cerevisiae bub3 mutant strain, at 50.0 µM (retest, dose inferred, filed as 5.0)
- Method: Growth inhibition of yeast strains with defined genetic alterations is measured as a screen for potential anti-cancer activity. Selected strains with alterations in DNA damage repair or cell cycle control were exposed to compounds and growth inhibition was measured relative to vehicle treated controls. The strain used in this assay is bub3
About 79,000 compounds went through this panel and 15% of them were active in at least one assay; those are over-represented in the sample as a whole. Activity calls are given as the source filed them. No stated cut-off is given here; in the data, active means growth inhibition above about 70%; inactive means the rest.
Select the correct class. Options are TRUE (active), FALSE (inactive) and nothing else.

The following compounds have reported results that may help.
Problem: I'd appreciate the recorded outcome for C(CCc1nn[nH]n1)CCC1CCCCC1 from this test.
Solution: TRUE

Problem: For On1c(-c2ccccc2)nc2ccccc2c1=S , what call appears in the results of this test?
Solution: TRUE

Next:
Problem: # lookup: test call for Oc1ccc(Nc2ccc3ccccc3c2)cc1
Solution: TRUE

Problem: Can you look up the reported call for CCNc1nnnn1CC for me?
Solution: FALSE

Problem: Recorded test outcome, item C=C(C(N)=O)C(N)C(=O)O (centres undefined)
Solution: FALSE

Problem: Test call, this compound: C=C1C(=O)OC2CC1C(OC(=O)/C=C/c1ccccc1)C/C(C)=C/CC/C(C)=C/CCC2(C)O (centres undefined)
Solution: TRUE

Problem: Look up the recorded call for C=[CH][Sn]([CH]=C)([O]c1cccc2cccnc12)[O]c1cccc2cccnc12 in this test.
Solution: TRUE

Problem: Look up the recorded call for Clc1ccc(-n2ncc3c(Cl)nc(Cl)nc32)cc1 in this test.
Solution: TRUE

Problem: Tell me the recorded outcome of this test for NC(CS/C(Cl)=C/Cl)C(=O)O (centres undefined) .
Solution: TRUE

Problem: Any idea what this test logged for O=C(c1ccccc1)C(Br)C(Br)c1ccccc1 (centres undefined) ?
Solution: TRUE

Problem: I'd appreciate the recorded outcome for O=[n+]1c2ccccc2n([O-])c2cc(Cl)ccc21 from this test.
Solution: TRUE

Problem: Query: recorded result category for Cc1cc(N/N=C/c2ccccn2)nc2ccccc12 in this test
Solution: TRUE

Problem: // return assay outcome for CN(C)c1ccc(C(=C2C=CC(=[N+](C)C)C=C2)c2ccc(N(C)C)cc2)cc1
Solution: TRUE

Problem: Short answer needed: outcome of this test for COc1cc(NC(=O)C2=C(C)NC(C)=C(C(=O)Nc3cc(OC)c(Cl)cc3OC)C2c2cccc([N+](=O)[O-])c2)c(OC)cc1Cl ?
Solution: TRUE

Problem: Hello, I am checking results. What call was entered for O=C(O)CCCOc1cc(-c2ccccc2F)nc2cc3c(cc12)OCO3 ?
Solution: FALSE

Problem: # fetch the recorded call for CCC[CH2][Sn]([CH2]CCC)([CH2]CCC)[O]C(=O)C(OC(C)=O)c1ccccc1 (centres undefined) here
Solution: TRUE

Problem: Status in this test for CCCN(CCC)C(=O)c1ccc(C)cc1 ?
Solution: FALSE

Problem: Hi team, can someone confirm the assay call for Cc1cc(C)c([I+]c2c(C)cc(C)cc2C)c(C)c1 ?
Solution: TRUE

Problem: Recorded call for CCCCCCCCCCCCCCCc1ccc(C(=O)C[n+]2ccccc2)cc1 ?
Solution: TRUE

Problem: Hey, what did the test say about O=[N+]([O-])CC(O)c1ccccc1 (centres undefined) ?
Solution: FALSE

Problem: Dear colleague, could you share the recorded outcome for CSC(SC)=C(C#N)C(=O)Nc1cccc(Cl)c1 when you have a moment?
Solution: TRUE

Problem: Could you please tell me the result logged for OC(CSc1ccccc1)CN1CCN(c2ccc(Cl)cc2)CC1 (centres undefined) in this assay?
Solution: TRUE

Problem: So what was the verdict on O=C1/C(=C\c2ccc([N+](=O)[O-])cc2)CS(=O)(=O)C/C1=C/c1ccc([N+](=O)[O-])cc1 in this test?
Solution: TRUE

Problem: Fill in: this test's call for CN(C)c1ccc(/C=C/c2sc3ccc4ccccc4c3[n+]2C)cc1 is ___
Solution: TRUE
